# Tested on: A498 renal
# assay: NCI-60 one-dose screen, 48 h (100 = growth as untreated, 0 = no growth, -100 = all killed)
# condition-notes: 10 µM unless noted
# Method: Growth inhibition of the A498 human tumor cell line is measured as a screen for anti-cancer activity. Cells are grown in 96 well plates and exposed to the test compound for 48 hours. Compounds are tested at a single concentration, which is 10^-5 M for most compounds. The reported endpoint is percent growth (GI% or GIPRCNT), where numbers from 0 - 100% represent growth inhibition, and numbers from -100% - 0 represent cell death. For example, a value of 40 represents 60% growth inhibition. […]
This is part of a sample that, as a whole, favours compounds with a hit. Of some 83,000 tested, about 20% had one in any assay.
growth strictly less than 80% = 1. Otherwise 0.

As a guide, the following entries are already answered.
compound	label-value
Nc1ncnc2c1C(c1ccc(Br)cc1)c1sc3c(F)cccc3c1O2 (stereo not drawn)	0
COC(=O)CC[C@H](C)[C@H]1CC[C@H]2[C@@H]3CC[C@@H]4CC5(CC[C@]4(C)[C@H]3CC(=O)[C@]12C)Nc1ccccc1NC5=NC(C)(C)C (stereo partly drawn)	1
O=C(NNC(=O)c1ccc(NC(=O)c2ccccn2)cc1)Nc1ccc([N+](=O)[O-])cc1	0

Query: Consider CC1CCN(S(=O)(=O)c2ccc(S(=O)(=O)N3CCCC(c4nc5c(nnn5Cc5cccc(Cl)c5)c(=O)[nH]4)C3)cc2)CC1 (stereo not drawn) . Does its growth lie strictly below 80%?
Result: 1

Query: Consider Nc1nc2ccc(-c3nc4ccc5[nH]ncc5c4c4c3CCCC4)cc2s1 . Does its growth lie strictly below 80%?
Result: 0

Query: Consider Cn1cc(-c2ccc3nc(-c4ccc(CC(=O)ONc5cc(C(C)(C)C)on5)cc4)cnc3c2)cn1 . Does its growth lie strictly below 80%?
Result: 1

Query: Consider C#Cc1c2c(c(OC)c3c1OCO3)[C@H]([C@H]1OC(=O)c3c1ccc(OC)c3OC)N(C)CC2 . Does its growth lie strictly below 80%?
Result: 1

Query: Consider COc1ccc(C/C(C)=C(/c2ccc(OCCN(C)C)cc2)c2ccc(OC(=O)NCc3ccccc3)cc2)cc1 . Does its growth lie strictly below 80%?
Result: 0

Query: Consider Nc1c(C(=O)Nc2ccccc2C(F)(F)F)sc2nc3c(cc12)CCC3 . Does its growth lie strictly below 80%?
Result: 0

Query: Consider Cc1ccc2c(c1)=C/C(=C\c1cc(-c3ccccc3)oc1O)C(=O)N=2 . Does its growth lie strictly below 80%?
Result: 0

Query: Consider CCCCNC(=O)Oc1ccc(/C(=C(/C)Cc2ccc(OC)cc2)c2ccc(OCCN3CCCC3)cc2)cc1 . Does its growth lie strictly below 80%?
Result: 1

Query: Consider Cc1cc(S(=O)(=O)/N=C(\N)n2nc(C)c(C)c2C)c(SCc2ccccc2)cc1Cl . Does its growth lie strictly below 80%?
Result: 0
